Tested on: KM12
assay_name: NCI tumour cell line growth inhibition, 48 h
Active and inactive are the calls of the source. No stated cut-off is given here; in the data, active = GI50 up to about 1.1 µM and inactive = higher.
GI50 listing for selected compounds.

- compound: "CN(C)c1ccc(/C=C(/NC(=O)c2ccccc2)C(=O)Nc2ccccc2C(=O)O)cc1"
  GI50: "> 100 µM (inactive)"
- compound: "O=[N+]([O-])c1ccc2ncccc2c1CCc1c([N+](=O)[O-])ccc2ncccc12"
  GI50: "> 100 µM (inactive)"
- compound: "CCOC(=O)CNC1C(NC(C)=O)C(OC)OC2COC(c3ccccc3)OC21 (stereo not given)"
  GI50: "> 100 µM (inactive)"
- compound: "O=c1[nH]c2ccc(Cl)cc2c2oc(-c3ccccc3)nc12"
  GI50: "40.8 µM (inactive)"
- compound: "CCOC(=O)c1cc2c3c(c(C(C)=O)c(O)c2[nH]1)N(C(C)=O)CC3"
  GI50: "45.4 µM (inactive)"
- compound: "CCCCP1(=O)C=CC(Cl)=C(C)C1 (stereo not given)"
  GI50: "> 100 µM (inactive)"
- compound: "CC[C@@H]1CSC(/C=C/C2OC3OC(C)(C)OC3C3OC(C)(C)OC23)=N1 (stereo not given in full)"
  GI50: "13.6 µM (inactive)"
- compound: "CC(=O)NNc1nc(C)c(C(=O)NNC(=O)C(=O)Nc2ccc(C)cc2[N+](=O)[O-])s1"
  GI50: "> 100 µM (inactive)"
- compound: "COc1cc(OC)c(C2c3cc4c(cc3OC(N3CCOCC3)C2C)OCO4)c(OC)c1 (stereo not given)"
  GI50: "24.5 µM (inactive)"
- compound: "CN1C(=O)C(CCO)(C(C)(C)C)c2ccccc21 (stereo not given)"
  GI50: "> 100 µM (inactive)"

* * *

Listed next: entries and their corresponding GI50.
System: SK-OV-3
assay_name: NCI tumour cell line growth inhibition, 48 h
The source made the active and inactive calls. Rule as the data show it: active = GI50 up to about 1.1 µM and inactive = higher.
reported_metric: GI50

- compound_structure: "O=C1C2=C(C3=NCCc4c[nH]c1c43)c1c(Br)cc(Br)cc1CCN2"
  observed: "12.2 µM (inactive)"
- compound_structure: "CCOC(=O)c1cnn2c1ncc1c(=O)n(NC(N)=O)ccc12"
  observed: "> 100 µM (inactive)"
- compound_structure: "CC(C)(C)C1=NC(=S)SC2=NC(=O)C3(NN21)c1ccccc1-c1ccccc13"
  observed: "> 10 µM (inactive)"
- compound_structure: "COC(=O)C1=C(C(=O)OC)SC2(S1)C(C(=O)OC)=C(C(=O)OC)Sc1c2ssc1=O"
  observed: "8.97 µM (inactive)"
- compound_structure: "O=[N+]([O-])c1ccc2ncccc2c1CCc1c([N+](=O)[O-])ccc2ncccc12"
  observed: "> 100 µM (inactive)"

* * *

Test system: TK-10
assay_name: NCI tumour cell line growth inhibition, 48 h
Activity calls are given as the source filed them. No stated cut-off is given here; in the data, active = GI50 up to about 1.1 µM and inactive = higher.

- compound: "CC(C)C(NCc1c(O)ccc2c(-c3ccccc3)cc(=O)oc12)C(=O)O (stereo unspecified)"
  GI50: "> 100 µM (inactive)"
- compound: "CC(=O)OCc1cc(OC(C)=O)c2cc3c(OC(C)=O)cccc3c(OC(C)=O)c2c1"
  GI50: "12.7 µM (inactive)"
- compound: "CCCCC(C(=O)CCC(=O)Nc1ccc(Cl)c(Cl)c1)C(=O)C(C)C (stereo unspecified)"
  GI50: "90.4 µM (inactive)"
- compound: "O=C1c2cccc3cccc(c23)C(=O)N1CCCNCCCCNCCCNCCCN1C(=O)c2cccc3cccc(c23)C1=O"
  GI50: "2.55 µM (inactive)"
- compound: "Cc1ccc(C)n1-n1c(Cc2ccc(Cl)cc2)n[nH]c1=O"
  GI50: "> 100 µM (inactive)"
- compound: "COc1ccc(C(=O)Cc2ccc(Cl)cc2)cc1OC"
  GI50: "> 100 µM (inactive)"
- compound: "COc1ccc(C=O)c([N+](=O)[O-])c1"
  GI50: "87.7 µM (inactive)"
- compound: "CCCn1cc2c(O)nc(SC)nc2n1"
  GI50: "> 100 µM (inactive)"
- compound: "CC[C@@H]1C[C@H]2CC3c4[nH]c5ccc(O)cc5c4CCN(C2)C31"
  GI50: "> 100 µM (inactive)"
- compound: "Cc1cc(=O)nc(Sc2ccc([N+](=O)[O-])cc2[N+](=O)[O-])[nH]1"
  GI50: "15.8 µM (inactive)"
- compound: "COc1ccc(C(=O)c2sc(Nc3ccccc3)nc2N)cc1"
  GI50: "> 55.7 µM (inactive)"

* * *

Tested on: ACHN
assay_name: NCI tumour cell line growth inhibition, 48 h
Activity calls are given as the source filed them. Cut-off read from the data, not from the text of the source: active = GI50 up to about 1.1 µM and inactive = higher.
Labels: active, inactive

- compound: "C=CCOC1=C(OCC=C)C(C2COC(C)(C)O2)OC1=O (stereo unspecified)"
  cat: "inactive"
- compound: "COc1ccc(/C=C2\\C(=O)N(C(=O)c3ccc(NC(C)=O)cc3)N=C2C)cc1OC"
  cat: "inactive"
- compound: "COCOc1cc(OC)ccc1C/C(=N/O)C(=O)OC"
  cat: "inactive"
- compound: "CC1(C)C(=O)c2ccccc2OC1N1CCN(C2Oc3ccccc3C(=O)C2(C)C)CC1 (stereo unspecified)"
  cat: "inactive"
- compound: "CC(=O)Oc1ccc2c(C)cc(=O)oc2c1OC(C)=O"
  cat: "inactive"
- compound: "CCN1CC2=C(NC(=S)NC2c2ccc(Cl)cc2)/C(=C/c2ccc(Cl)cc2)C1 (stereo unspecified)"
  cat: "inactive"
- compound: "Nc1ncnc2c1N=C(c1ccccc1)CC(c1ccccc1)N2 (stereo unspecified)"
  cat: "inactive"
- compound: "O=C1C(Cl)=C(c2ccc([N+](=O)[O-])cc2)C(=O)c2c(O)cccc21"
  cat: "active"
- compound: "O=C1NCN(c2ccccc2)C12CCN(CCCN1CCN(CCOC(c3ccc(F)cc3)c3ccc(F)cc3)CC1)CC2"
  cat: "inactive"
- compound: "Cc1ccc(NC(=O)CC(=O)N2N=C(c3ccccc3)C(/N=N/c3ccc(S(=O)(=O)CCOS(=O)(=O)O)cc3)C2=O)cc1 (stereo unspecified)"
  cat: "inactive"
- compound: "CC(=O)C(O)N1C(=O)C=CC1=O (stereo unspecified)"
  cat: "inactive"

* * *

Test system: MDA-N
assay_name: NCI tumour cell line growth inhibition, 48 h
Calls of active or inactive are those of the source. Rule as the data show it: active = GI50 up to about 1.1 µM and inactive = higher. Where a SMILES comes first, the peptide text is derived from it. The star is where a group is joined. ONb = O=[N+]([O-])c1ccc(CO*)cc1; Boc = CC(C)(C)OC(=O)*
Outcome codes: Yes (active), No (inactive)

- molecule: "CC1=C(C(N)=O)C(c2ccncc2)C(C#N)=C2SCC(=O)N12 (stereo not drawn)"
  cat: "No"
- molecule: "CC(C)C[C@H]1[C@@H](OCc2ccccc2)COS(=O)(=O)N1[C@H](C)c1ccccc1"
  cat: "No"
- molecule: "C=CCc1cc(-c2cc(CC=C)c(O)c(CN(CC)CC)c2)cc(CN(CC)CC)c1O"
  cat: "No"
- molecule: "CN(C)c1ccc(/C=C(/NC(=O)c2ccccc2)C(=O)Nc2ccccc2C(=O)O)cc1"
  cat: "No"
- molecule: "CCN1CC2=C(NC(=S)NC2c2ccc(Cl)cc2)/C(=C/c2ccc(Cl)cc2)C1 (stereo not drawn)"
  cat: "No"
- molecule: "COc1cc2c(NCCCCCO)ncnc2c(OC)c1OC"
  cat: "No"
- molecule: "CC(C)CC(NC(=O)OC(C)(C)C)C(=O)NC(CCC(=O)OCc1ccc([N+](=O)[O-])cc1)C(=O)OCc1ccc([N+](=O)[O-])cc1 (stereo not drawn) (Boc-Leu-Glu(ONb)-ONb; configuration not given here)"
  cat: "No"
- molecule: "Cc1cnc(NCCCN(C)C)c2c1[nH]c1ccc3cc(O)ccc3c12"
  cat: "Yes"
- molecule: "NC1CC(N)c2c(Br)sc(Br)c21 (stereo not drawn)"
  cat: "No"
- molecule: "CC1(C)CC2=NC(SSC3=C(C#N)C(c4ccc(Br)cc4)C4=C(O)CC(C)(C)CC4=N3)=C(C#N)C(c3ccc(Br)cc3)C2=C(O)C1 (stereo not drawn)"
  cat: "No"
- molecule: "COC(=O)c1c(O)ccc2c1c1c(n2Cc2cccc(C)c2)C(=O)c2ccccc2C1=O"
  cat: "No"
- molecule: "NCCNCC1CCNCC1"
  cat: "No"
- molecule: "COc1cccc(-c2cc(=O)c3ccccc3o2)c1N"
  cat: "No"
- molecule: "CO[C@H]1C[C@@H]2CC[C@@H](C)[C@@](O)(O2)C(=O)C(=O)N2CCCC[C@H]2C(=O)O[C@H]([C@H](C)C[C@@H]2CC[C@@H](O)[C@H](OC)C2)CC(=O)[C@H](C)C=C(C)[C@@H](O)[C@@H](OC)C(=O)[C@H](C)C[C@H](C)/C=C/C=C/C=C1C"
  cat: "No"
- molecule: "CC(C)CCC(=O)c1ccoc1"
  cat: "No"
- molecule: "CCC12CCCN3CCc4c(n(c5ccccc45)C(O)(C(=O)OC)C1)C32 (stereo not drawn)"
  cat: "No"
- molecule: "CC[C@@H]1CSC(/C=C/C2OC3OC(C)(C)OC3C3OC(C)(C)OC23)=N1 (stereo partly drawn)"
  cat: "No"
- molecule: "CC1[C@@H](OCc2ccccc2)COC(=O)N1Cc1ccccc1 (stereo partly drawn)"
  cat: "No"
